- Assay Text: melting temperature; fluorescence melt of hairpins on a sequencing array, two-state fit, raised by 9.35 °C to match UV melts
- Measurement Conditions: sodium 0.088 M
# Lookup of reported Tm keyed by entry
Use °C as the unit, but write only the number.

{"Sequence Data": "GGGTCCGAAAGGATCCC ((((((....))).)))", "Measured Metric": "Tm", "Endpoint Value": 60.1}

## Task Return the recorded Tm value; entry: GGCGAATCGAAAGATGCC (((..(((....))))))
## Result 46.1

## Task Return the recorded Tm value; entry: GGTAGGGGAAACTCTACC (((((.(....).)))))
## Result 46

## Task Return the recorded Tm value; entry: GGGGTATCGAAAGATCCC (((..(((....))))))
## Result 50.4

## Task Return the recorded Tm value; entry: GATGACGAAAGTCATC ((((((....))))))
## Result 67.4

## Task Return the recorded Tm value; entry: GCCCCGCGAAAGCAGCGC ((.(.((....)).).))
## Result 39.7

## Task Return the recorded Tm value; entry: GCAGCGGGAAACCACCGC ((.(.((....)).).))
## Result 39.8

## Task Return the recorded Tm value; entry: GCCCGGCGAAAGCGTGGC (((..((....))..)))
## Result 57.9

## Task Return the recorded Tm value; entry: GCTGCAGGAAACTGCAAC (.(((((....))))).)
## Result 40.9

## Task Return the recorded Tm value; entry: GATCTTATCAAGATC ((((((...))))))
## Result 46

## Task Return the recorded Tm value; entry: GTTTCCGAAAGGAGAAAC ((((((....)))..)))
## Result 32.5

## Task Return the recorded Tm value; entry: GGGTCTGGAAACGGACTC (.(((.(....).))).)
## Result 37.5

----------
- Assay Text: folding enthalpy; higher = less favourable; fluorescence melt of hairpins on a sequencing array, two-state fit
- Measurement Conditions: sodium 0.088 M
Measured Metric: folding enthalpy (kcal/mol)
Use kcal/mol as the unit, but write only the number.

## Task Return the recorded folding enthalpy value; entry: GCCCGCGAAAGCGTAGGC ((((((....)))..)))
## Result -22.3

## Task Return the recorded folding enthalpy value; entry: GCGACAGGAAACTATCGC ((((.((....)).))))
## Result -31.9

## Task Return the recorded folding enthalpy value; entry: GACGTAGGAAACTGTGTC (((..((....))..)))
## Result -9.59

## Task Return the recorded folding enthalpy value; entry: GGCATTGGAAACAGTGTC (.((.((....)).)).)
## Result -17

## Task Return the recorded folding enthalpy value; entry: GTCAACGAAAGTTTCGAC ((((((....)))..)))
## Result -14.3

## Task Return the recorded folding enthalpy value; entry: GGCCGGCGAAAGCCGCC (((.(((....))))))
## Result -12

----------
- Assay Text: folding enthalpy; higher = less favourable; fluorescence melt of hairpins on a sequencing array, two-state fit
- Measurement Conditions: sodium 0.088 M
Classification field: enter 1 for folding enthalpy values not below -30 kcal/mol, -1 for values below it.

Past entries and their recorded results:
{"Sequence Data": "GGACCCTCGAAAGAGTCC (((..(((....))))))", "Class Name": 1}
{"Sequence Data": "GCTGGCGGAAACACCAGC (((((.(....).)))))", "Class Name": -1}
{"Sequence Data": "GCACAGCGAAAGCAGTGC ((((.((....)).))))", "Class Name": -1}
{"Sequence Data": "GATCACTCAGGTGATC ((((((....))))))", "Class Name": -1}

## Task I'd appreciate it if you could say whether GCCCGTCGAAAGACGGC (((.(((....)))))) has folding enthalpy at least equal to -30 kcal/mol.
## Result 1

## Task I'd appreciate it if you could say whether GATCGTGAAGACGATC ((((((....)))))) has folding enthalpy at least equal to -30 kcal/mol.
## Result -1

## Task I'd appreciate it if you could say whether GGTTCCGAAAGGAAACC ((((((....))).))) has folding enthalpy at least equal to -30 kcal/mol.
## Result 1

## Task I'd appreciate it if you could say whether GTTCCCGAAAGGGACAAC ((((((....)))..))) has folding enthalpy at least equal to -30 kcal/mol.
## Result 1

## Task I'd appreciate it if you could say whether GGGGTTGGAAACGACCCC (((((.(....).))))) has folding enthalpy at least equal to -30 kcal/mol.
## Result -1

## Task I'd appreciate it if you could say whether GCACGGCGAAAGCAGCGC ((.(.((....)).).)) has folding enthalpy at least equal to -30 kcal/mol.
## Result 1

## Task I'd appreciate it if you could say whether GATCCCCAGGGGGATC ((((((....)))))) has folding enthalpy at least equal to -30 kcal/mol.
## Result 1

## Task I'd appreciate it if you could say whether GTTGATGGAAACATCAGC (.(((((....))))).) has folding enthalpy at least equal to -30 kcal/mol.
## Result 1

## Task I'd appreciate it if you could say whether GTCAAACGAAAGTTGAC (((.(((....)))))) has folding enthalpy at least equal to -30 kcal/mol.
## Result 1

## Task I'd appreciate it if you could say whether GATCATGGAGATGATC ((((((....)))))) has folding enthalpy at least equal to -30 kcal/mol.
## Result -1
